# testedOn: Caspase-6 (Homo sapiens)
# Sequence (P55212 24-179 limits assumed): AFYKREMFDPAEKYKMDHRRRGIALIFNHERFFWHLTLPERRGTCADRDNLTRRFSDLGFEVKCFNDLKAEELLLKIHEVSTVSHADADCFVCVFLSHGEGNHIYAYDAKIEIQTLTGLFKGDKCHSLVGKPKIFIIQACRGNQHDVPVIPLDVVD
# Sequence (P55212 194-293 limits assumed): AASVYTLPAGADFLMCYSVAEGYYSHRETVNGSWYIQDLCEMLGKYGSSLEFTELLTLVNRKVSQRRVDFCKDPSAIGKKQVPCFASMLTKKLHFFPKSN
# procedureSummary: inhibition of CASP6 peptide cleavage – biochemical, VEID-R110 fluorescence, cherry-pick, dose response (AID 720632)
Activity calls are given as the source filed them. How the calls were made is not given here.
Measured AC50 of individual entries

Previously resolved entries follow.
> print(dat)
                                   molecule               val
1                 O=C(O)Cc1ccc(-n2cccc2)cc1   2.7 µM (active)
2  O=C(O)CCN1CC2([N+](=O)[O-])C=CC(=O)C([N+](=O)[O-])(C1)C2CC(=O)c1ccccc1 (stereo not given)  15.7 µM (active)
3  Cc1cccc(NC(=O)CNC(=O)c2cccc(-n3cccc3)c2)c1C  1.55 µM (active)
4  CCCSC1=N/C(=C\c2ccc([N+](=O)[O-])o2)C(=O)S1  2.93 µM (active)

Moving on to the next molecule.
State the recorded AC50 for this entry: "O=S(=O)(Nc1ccccc1)c1cccc2nsnc12" 8.86 µM (active)

====

# testedOn: Cytochrome P450 1A2 (Homo sapiens, UniProt P05177)
# Sequence (P05177 whole entry): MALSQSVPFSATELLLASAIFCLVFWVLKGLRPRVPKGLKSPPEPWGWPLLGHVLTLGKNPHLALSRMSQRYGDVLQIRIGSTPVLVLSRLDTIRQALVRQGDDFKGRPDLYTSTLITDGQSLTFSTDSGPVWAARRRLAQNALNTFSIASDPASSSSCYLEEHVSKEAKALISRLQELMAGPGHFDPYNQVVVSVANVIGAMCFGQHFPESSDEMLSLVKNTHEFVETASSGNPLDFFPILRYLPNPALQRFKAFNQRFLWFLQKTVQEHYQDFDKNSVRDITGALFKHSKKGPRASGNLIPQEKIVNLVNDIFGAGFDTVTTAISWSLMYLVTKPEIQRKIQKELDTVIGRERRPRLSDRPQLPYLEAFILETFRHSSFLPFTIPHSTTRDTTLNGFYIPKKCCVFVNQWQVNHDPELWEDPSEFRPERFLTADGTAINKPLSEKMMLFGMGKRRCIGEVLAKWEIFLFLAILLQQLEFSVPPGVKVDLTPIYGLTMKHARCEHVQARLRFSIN
The source made the active and inactive calls.
quantityName: AC50

Previously resolved entries follow.
> print(dat)
                                   compound  quantityname                     val
1  O=C1Nc2ccc(S(=O)(=O)O)cc2/C1=N/Nc1ccccc1[N+](=O)[O-]          AC50     1 µM (inconclusive)
2  CCc1ccc(CN(C(=O)c2cc3ccccc3oc2=O)C2CCS(=O)(=O)C2)cc1 (stereo unspecified)          AC50  28.2 µM (inconclusive)

Lookup: AC50 / Cytochrome P450 1A2 (Homo sapiens, UniProt P05177) / "O=c1c(CCc2ccccc2)nc2cncnc2n1Cc1ccccc1Cl" 12.6 µM (inconclusive)

Param readout= AC50; system= Cytochrome P450 1A2 (Homo sapiens, UniProt P05177); entry= "CC(C)=NNc1ncnc2[nH]cnc12" ; returns value. 0.794 µM (inconclusive)

Which AC50 is reported with Cytochrome P450 1A2 (Homo sapiens, UniProt P05177) for this entry: "COC(=O)N1CCC2(CCN(C(=O)Nc3ccc(OC)cc3)CC2)CC1" ? 25.1 µM (inconclusive)

Short answer please: AC50, Cytochrome P450 1A2 (Homo sapiens, UniProt P05177), entry NNC(N)=O [HYDRAZINECARBOXAMIDE] 39.8 µM (inconclusive)

Find the measured AC50: item CC(C)NC(=O)C1CC(=O)N(c2ccc(F)c(Cl)c2)C1 (stereo unspecified) , target or system Cytochrome P450 1A2 (Homo sapiens, UniProt P05177). 2 µM (inconclusive)

Please provide the recorded AC50 for CCOC(=O)NCN1C(=O)C2C3C=CC(C3)C2C1=O (stereo unspecified) , tested on Cytochrome P450 1A2 (Homo sapiens, UniProt P05177). 14.1 µM (inconclusive)

Find AC50 (Cytochrome P450 1A2 (Homo sapiens, UniProt P05177)) for the entry "C[C@@H](C(=O)NCc1nc2ccccc2[nH]1)[C@@H]1C[C@@]1(C)[C@@H](NC(=O)OCc1ccccc1)c1ccccc1" 12.6 µM (inconclusive)

Find AC50 (Cytochrome P450 1A2 (Homo sapiens, UniProt P05177)) for the entry "COc1cc(/C=C/C(=O)Nc2ccccc2C(F)(F)F)cc(OC)c1OC" 28.2 µM (inconclusive)

Look up AC50 with Cytochrome P450 1A2 (Homo sapiens, UniProt P05177) for this compound: "c1cncc(CNc2nc(-c3cccnc3)nc3ccccc23)c1" 0.316 µM (active)
